tested on: mitochondria of 32D c13 hemopoietic cells; assay: Mass spectrometry of conjugates in isolated mitochondria; format: cell-based, mouse; conditions: mouse, 2 h, 100 μM
Where a SMILES comes first, the peptide text is derived from it. [ ]: non-standard residue; d: D form. The star is where a group is joined. Orn = NCCC[C@H](N)C(=O)O; Cbz = O=C(OCc1ccccc1)*; Boc = CC(C)(C)OC(=O)*; X1 = CC1CCN=C(N*)S1
OUTCOME MEASURE: Fmole/10 μM mitochondrial protein

// below: answered compounds
COMPOUND	OUTCOME MEASURE	REPORTED VALUE
CC(C)C[C@@H](/C=C/[C@H](Cc1ccccc1)C(=O)NC1=NCCC(C)S1)NC(=O)OC(C)(C)C (stereo partly drawn) [XJB-5-234, Boc-Leu-ψ[(E)-CH═CH]-^DPhe-AMT]	Fmole/10 μM mitochondrial protein	1.45 Fmole/10 μM mitochondrial protein
CC(C)C[C@H](NC(=O)OC(C)(C)C)C(=O)N[C@H](Cc1ccccc1)C(=O)N1CCC[C@H]1C(=O)N[C@H](C(=O)N[C@@H](CCCNC(=O)OCc1ccccc1)C(=O)NC1=NCCC(C)S1)C(C)C (stereo partly drawn) [XJB-5-127, Boc-Leu-^DPhe-Pro-Val-Orn(Cbz)-AMT] (Boc-L[dF]PV[Orn](Cbz)-X1)	Fmole/10 μM mitochondrial protein	50.8 Fmole/10 μM mitochondrial protein
CC(C)C[C@@H](/C=C/[C@H](Cc1ccccc1)C(=O)N1CCC[C@H]1C(=O)N[C@H](C(=O)N[C@@H](CCCNC(=O)OCc1ccccc1)C(=O)NC1=NCCC(C)S1)C(C)C)NC(=O)OC(C)(C)C (stereo partly shown) [XJB-5-133]	Fmole/10 μM mitochondrial protein	89.8 Fmole/10 μM mitochondrial protein

Field: next compound
Fmole/10 μM mitochondrial protein for C/C(=C\[C@H](Cc1ccccc1)C(=O)N1CCC[C@H]1C(=O)N[C@H](C(=O)N[C@@H](CCCNC(=O)OCc1ccccc1)C(=O)NC1=NCCC(C)S1)C(C)C)[C@H](CC(C)C)NC(=O)OC(C)(C)C (stereo partly shown) [XJB-5-241] ? 103.3 Fmole/10 μM mitochondrial protein
